# Assayed system: pig TRPM8 (Sus scrofa)
# Construct: expressed in transfected cells; host or cells: CHO (pcDNA5/FRT/TO vector; hygromycin B and blasticidin selection)
# Sequence (F1SM15 1-1104): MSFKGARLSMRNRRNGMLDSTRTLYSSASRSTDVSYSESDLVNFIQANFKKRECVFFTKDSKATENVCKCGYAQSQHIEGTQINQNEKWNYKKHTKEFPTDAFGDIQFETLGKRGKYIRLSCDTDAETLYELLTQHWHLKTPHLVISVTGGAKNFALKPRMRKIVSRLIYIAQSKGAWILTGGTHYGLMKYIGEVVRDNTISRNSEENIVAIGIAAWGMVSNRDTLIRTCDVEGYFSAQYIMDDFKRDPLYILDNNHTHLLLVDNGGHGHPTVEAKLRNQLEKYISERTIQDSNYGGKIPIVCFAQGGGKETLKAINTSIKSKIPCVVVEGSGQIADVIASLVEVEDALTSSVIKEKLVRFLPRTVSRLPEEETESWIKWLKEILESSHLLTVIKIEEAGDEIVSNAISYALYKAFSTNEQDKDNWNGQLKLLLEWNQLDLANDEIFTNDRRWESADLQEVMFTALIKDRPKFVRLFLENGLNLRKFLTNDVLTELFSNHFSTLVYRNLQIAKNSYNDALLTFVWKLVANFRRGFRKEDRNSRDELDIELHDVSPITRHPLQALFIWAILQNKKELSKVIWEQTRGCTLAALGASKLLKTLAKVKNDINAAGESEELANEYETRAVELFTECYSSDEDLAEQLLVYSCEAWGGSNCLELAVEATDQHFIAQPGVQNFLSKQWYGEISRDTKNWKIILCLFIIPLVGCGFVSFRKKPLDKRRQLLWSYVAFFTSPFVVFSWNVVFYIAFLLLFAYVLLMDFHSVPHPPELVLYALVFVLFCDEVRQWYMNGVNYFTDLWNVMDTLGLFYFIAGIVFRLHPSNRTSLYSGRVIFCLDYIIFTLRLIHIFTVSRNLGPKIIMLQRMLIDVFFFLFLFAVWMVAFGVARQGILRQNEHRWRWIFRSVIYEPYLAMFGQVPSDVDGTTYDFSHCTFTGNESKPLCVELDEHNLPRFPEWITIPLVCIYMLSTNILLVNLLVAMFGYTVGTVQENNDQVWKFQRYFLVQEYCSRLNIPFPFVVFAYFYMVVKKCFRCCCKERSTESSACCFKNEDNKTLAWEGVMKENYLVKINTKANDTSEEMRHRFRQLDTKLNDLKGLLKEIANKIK
# Protocol notes: In vitro pig TRPM8 fluorescence calcium flux assay (recombinant CHO cells, Fluo4-AM, FDSS6000)
# Assay type: cell-based
# Condition info: recombinant CHO cells expressing pig TRPM8; menthol-related EC50, normalized to 100 μM menthol
Counter-ions that a name gives are not always drawn.
Measurement label: EC50 (nM)

• CC(C)[C@@H]1CC[C@@H](C)C[C@@]1(O)C(=O)NCC(O)c1ccccc1F (some centres unmarked) [Example 157] = 4.7
• CC(C)[C@@H]1CC[C@@H](C)C[C@@]1(O)C(=O)NCCc1cnccn1 [Example 131] = 267
• COCCOCCOCCOc1cccc(CCNC(=O)[C@]2(O)C[C@H](C)CC[C@H]2C(C)C)c1 [Example 185] = 68.1
• CC(C)[C@@H]1CC[C@@H](C)C[C@@]1(O)C(=O)NCC(=O)c1cccc(F)c1F [Example 142] = 4
• CC(C)[C@@H]1CC[C@@H](C)C[C@@]1(O)C(=O)NCCc1ccccc1OC[C@@H](O)CO [Example 25] = 32.8
• COc1cc(CCNC(=O)[C@]2(O)C[C@H](C)CC[C@H]2C(C)C)ccc1O [Example 114] = 28.2

[a] CC(C)[C@@H]1CC[C@@H](C)C[C@@]1(O)C(=O)NCCc1cccc(C(=O)OCCN)c1 [Example 16, hydrochloride]
[b] COC(=O)CO[C@H](CNC(=O)[C@]1(O)C[C@H](C)CC[C@H]1C(C)C)c1ccccc1 [Example 57]
Request: // pick larger EC50 from pair: a vs b // respond with label for picked entry
Response: b
